# IC50 listing for each entry below
# SYSTEM NAME: a1B-Adrenoreceptor (ADRA1B) (Homo sapiens)
# Construct: expressed in transfected cells
# Sequence (P35368 1-520): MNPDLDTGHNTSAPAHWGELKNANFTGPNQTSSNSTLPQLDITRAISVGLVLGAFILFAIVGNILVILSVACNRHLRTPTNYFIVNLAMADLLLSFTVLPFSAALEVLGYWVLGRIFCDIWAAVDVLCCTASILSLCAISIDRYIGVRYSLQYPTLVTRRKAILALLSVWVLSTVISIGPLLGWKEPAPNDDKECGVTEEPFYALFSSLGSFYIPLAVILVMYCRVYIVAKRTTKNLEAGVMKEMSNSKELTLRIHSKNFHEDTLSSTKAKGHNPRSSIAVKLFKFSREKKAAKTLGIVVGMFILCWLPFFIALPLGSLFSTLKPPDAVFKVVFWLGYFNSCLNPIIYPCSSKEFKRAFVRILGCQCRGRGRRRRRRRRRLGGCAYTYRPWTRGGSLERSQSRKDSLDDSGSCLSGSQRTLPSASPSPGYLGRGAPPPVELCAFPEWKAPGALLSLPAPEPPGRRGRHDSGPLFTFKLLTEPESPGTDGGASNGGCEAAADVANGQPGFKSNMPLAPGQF
# PROTOCOL DESCRIPTION: GPCR selectivity cellular assay
# Assay type: cell-based
# CONDITIONS: Antagonism; read-out: Antagonist Activity (IC50)
# Method: tagonists, with little activity detected on other GPCRs. Antagonist and/or agonist activities of the two compounds were determined in cellular assays for 20 human G-protein coupled receptors (GPCR) beside MRGPRX2. Recombinant over-expression systems in mammalian cells were used for all assays listed in this table. […] reported as ‘>’ the highest compound concentration allowed in that assay. GPCR Target Name Gene symbol Mode of Activity Compound-A Compound-B […]

[
  {
    "STRUCTURE SMILES STRING": "C[C@@H](C(=O)Nc1cnc(Oc2ccc(F)cc2F)cn1)N1CCC(F)(F)[C@@H](c2cc[n+]([O-])cc2)C1",
    "IC50": "> 25 µM"
  }
]

// switching to the query molecule
// sample CC1(C)C(C(=O)Nc2ccccn2)C1(C)C , its IC50 was > 25 µM

---

Quick reference for pIC50 among some compounds
# SYSTEM NAME: V1A receptor (AVPR1A) (Homo sapiens, UniProt P37288)
# Sequence (P37288 whole entry): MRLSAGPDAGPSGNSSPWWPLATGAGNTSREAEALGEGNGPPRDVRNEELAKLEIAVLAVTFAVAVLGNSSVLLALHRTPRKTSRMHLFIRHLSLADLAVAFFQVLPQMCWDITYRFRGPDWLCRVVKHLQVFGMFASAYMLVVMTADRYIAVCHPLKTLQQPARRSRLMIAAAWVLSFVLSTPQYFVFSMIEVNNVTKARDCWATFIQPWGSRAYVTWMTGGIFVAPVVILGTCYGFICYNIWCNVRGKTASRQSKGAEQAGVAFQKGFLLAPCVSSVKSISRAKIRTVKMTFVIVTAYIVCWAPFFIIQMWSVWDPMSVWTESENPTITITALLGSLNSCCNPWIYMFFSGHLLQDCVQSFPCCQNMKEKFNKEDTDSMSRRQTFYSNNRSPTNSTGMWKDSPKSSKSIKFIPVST
# PROTOCOL DESCRIPTION: GPCR selectivity cellular assay
# CONDITIONS: Antagonism; read-out: Antagonist Activity (IC50)
pIC50: −log10 of the molar value.

[
  {
    "STRUCTURE SMILES STRING": "CC1(C)C(C(=O)Nc2ccccn2)C1(C)C",
    "SYSTEM NAME": "V1A receptor (AVPR1A) (Homo sapiens, UniProt P37288)",
    "OBSERVED MEASUREMENT": "< 4.30"
  }
]

Shift focus to the following entry.
Measured pIC50 for this entry C[C@@H](C(=O)Nc1cnc(Oc2ccc(F)cc2F)cn1)N1CCC(F)(F)[C@@H](c2cc[n+]([O-])cc2)C1 on V1A receptor (AVPR1A) (Homo sapiens, UniProt P37288): < 4.30

---

# SYSTEM NAME: UniProtKB P28223
# Sequence (P28223 whole entry): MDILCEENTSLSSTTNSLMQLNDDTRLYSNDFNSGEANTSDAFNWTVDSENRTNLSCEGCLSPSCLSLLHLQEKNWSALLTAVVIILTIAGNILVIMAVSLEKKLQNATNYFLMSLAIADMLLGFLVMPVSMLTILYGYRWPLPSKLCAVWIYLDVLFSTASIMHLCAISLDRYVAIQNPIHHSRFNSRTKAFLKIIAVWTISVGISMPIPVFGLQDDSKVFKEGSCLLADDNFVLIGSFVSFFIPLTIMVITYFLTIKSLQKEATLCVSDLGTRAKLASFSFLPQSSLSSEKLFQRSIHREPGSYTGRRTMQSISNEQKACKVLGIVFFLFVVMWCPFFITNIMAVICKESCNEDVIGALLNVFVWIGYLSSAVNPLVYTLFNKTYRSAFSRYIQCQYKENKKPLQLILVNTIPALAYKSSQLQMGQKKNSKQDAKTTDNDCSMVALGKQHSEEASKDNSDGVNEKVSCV
# PROTOCOL DESCRIPTION: GPCR selectivity cellular assay
# Format: cell-based
pEC50: −log10 of the molar value.
VALUE TYPE: pEC50

According to the records, this compound CC1(C)C(C(=O)Nc2ccccn2)C1(C)C [Compound A] displays pEC50 of < 4.00

---

# SYSTEM NAME: CB1 receptor (CNR1) (Homo sapiens)
# Construct: expressed in transfected cells
# Sequence (P21554 whole entry): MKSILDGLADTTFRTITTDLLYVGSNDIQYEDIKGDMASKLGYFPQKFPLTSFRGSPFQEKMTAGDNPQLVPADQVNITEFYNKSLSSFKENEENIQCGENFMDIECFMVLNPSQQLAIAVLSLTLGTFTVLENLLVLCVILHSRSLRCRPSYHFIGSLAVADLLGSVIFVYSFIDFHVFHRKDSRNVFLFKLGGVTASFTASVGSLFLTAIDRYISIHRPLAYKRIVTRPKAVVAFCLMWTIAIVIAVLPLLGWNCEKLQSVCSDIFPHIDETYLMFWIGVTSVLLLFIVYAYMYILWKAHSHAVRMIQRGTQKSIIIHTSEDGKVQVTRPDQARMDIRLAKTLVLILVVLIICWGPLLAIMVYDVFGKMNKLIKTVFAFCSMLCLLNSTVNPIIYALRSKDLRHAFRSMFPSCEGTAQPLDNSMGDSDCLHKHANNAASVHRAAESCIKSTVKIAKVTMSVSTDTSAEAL
# PROTOCOL DESCRIPTION: GPCR selectivity cellular assay
# Type: cell-based
# CONDITIONS: Agonism; read-out: Agonist Activity (EC50)
pEC50: −log10 of the molar value.
VALUE TYPE: pEC50

Record summary for C[C@@H](C(=O)Nc1cnc(Oc2ccc(F)cc2F)cn1)N1CCC(F)(F)[C@@H](c2cc[n+]([O-])cc2)C1 : reported pEC50 = < 4.60

---

# SYSTEM NAME: MRGPRX2 (Homo sapiens)
# PROTOCOL DESCRIPTION: LAD2 mast cell degranulation (β-hexosaminidase release), MRGPRX2 ligand-mediated
# Type: cell-based
# Design: human mast cells expressing endogenous MRGPRX2; endogenous in cells; […]
# CONDITIONS: Inhibition of Ligand Mediated LAD-2 Cell Activation and Degranulation IC50, Mast Cell Activator: Substance P (1 μM, approx. EC80); mean ± SEM
VALUE TYPE: pIC50
// pIC50: -log10(molar conc.)

Documented pIC50 of CC1(C)C(C(=O)Nc2ccccn2)C1(C)C : 7.49

---

Entries and their EC50 values follow.
# SYSTEM NAME: A2A receptor (ADORA2A) (Homo sapiens, UniProt P29274)
# Sequence (P29274 whole entry): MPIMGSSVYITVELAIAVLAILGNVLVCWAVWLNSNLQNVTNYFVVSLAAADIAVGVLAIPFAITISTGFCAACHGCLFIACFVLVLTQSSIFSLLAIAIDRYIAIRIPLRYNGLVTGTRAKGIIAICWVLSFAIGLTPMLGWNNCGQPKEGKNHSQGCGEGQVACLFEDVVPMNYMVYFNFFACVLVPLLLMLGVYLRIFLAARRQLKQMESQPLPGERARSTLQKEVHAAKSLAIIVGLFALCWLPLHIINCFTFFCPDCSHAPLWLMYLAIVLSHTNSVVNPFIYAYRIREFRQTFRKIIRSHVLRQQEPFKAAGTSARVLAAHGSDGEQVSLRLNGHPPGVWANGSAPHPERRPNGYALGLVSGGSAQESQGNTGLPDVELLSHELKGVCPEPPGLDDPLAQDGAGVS
# PROTOCOL DESCRIPTION: GPCR selectivity cellular assay
# CONDITIONS: Agonism; read-out: Agonist Activity (EC50)

[
  {
    "MOLECULE": "C[C@@H](C(=O)Nc1cnc(Oc2ccc(F)cc2F)cn1)N1CCC(F)(F)[C@@H](c2cc[n+]([O-])cc2)C1 [Compound B]",
    "VALUE TYPE": "EC50",
    "OBSERVED MEASUREMENT": "> 100 µM"
  }
]

Next molecule, please.
Noted for CC1(C)C(C(=O)Nc2ccccn2)C1(C)C [Compound A] : its EC50 reads > 100 µM

---

# SYSTEM NAME: MRGPRX2 (Homo sapiens, UniProt Q96LB1)
# Sequence (Q96LB1 whole entry): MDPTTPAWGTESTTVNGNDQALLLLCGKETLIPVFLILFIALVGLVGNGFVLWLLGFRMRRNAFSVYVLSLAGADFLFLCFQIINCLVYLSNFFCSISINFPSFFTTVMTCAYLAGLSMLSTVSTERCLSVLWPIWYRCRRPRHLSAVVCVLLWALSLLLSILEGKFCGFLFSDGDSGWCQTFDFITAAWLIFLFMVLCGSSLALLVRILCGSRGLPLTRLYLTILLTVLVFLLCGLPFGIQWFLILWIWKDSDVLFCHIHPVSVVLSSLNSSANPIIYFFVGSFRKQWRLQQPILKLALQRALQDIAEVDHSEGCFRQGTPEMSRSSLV
# PROTOCOL DESCRIPTION: LAD2 mast cell degranulation (β-hexosaminidase release), MRGPRX2 ligand-mediated
# Format: cell-based
# Set-up: human mast cells expressing endogenous MRGPRX2; endogenous in cells; […]
# CONDITIONS: Inhibition of Ligand Mediated LAD-2 Cell Activation and Degranulation IC50, Mast Cell Activator: PAMP-12 at approx. EC80; mean ± SEM
VALUE TYPE: IC50
Please answer using a numeric value trailed by its unit.

Known value: MRGPRX2 (Homo sapiens, UniProt Q96LB1) IC50 of the compound CC1(C)C(C(=O)Nc2ccccn2)C1(C)C equals 63.3 nM

---

# SYSTEM NAME: M1 receptor (CHRM1) (Homo sapiens)
# Sequence (P11229 whole entry): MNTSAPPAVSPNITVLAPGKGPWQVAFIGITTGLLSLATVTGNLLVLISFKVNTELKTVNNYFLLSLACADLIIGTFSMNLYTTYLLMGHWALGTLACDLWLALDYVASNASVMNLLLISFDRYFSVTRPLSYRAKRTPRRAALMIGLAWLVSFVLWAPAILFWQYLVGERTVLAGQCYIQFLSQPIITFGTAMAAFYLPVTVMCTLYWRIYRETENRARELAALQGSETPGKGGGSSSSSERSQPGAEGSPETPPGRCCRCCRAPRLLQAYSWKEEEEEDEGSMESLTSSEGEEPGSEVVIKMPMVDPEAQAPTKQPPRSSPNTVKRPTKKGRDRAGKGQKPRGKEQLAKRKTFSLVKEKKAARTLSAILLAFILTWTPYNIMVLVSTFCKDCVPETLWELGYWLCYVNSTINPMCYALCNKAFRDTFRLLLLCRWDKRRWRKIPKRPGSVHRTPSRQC
# PROTOCOL DESCRIPTION: GPCR selectivity cellular assay
# CONDITIONS: Antagonism; read-out: Antagonist Activity (IC50)
pIC50: −log10 of the molar value.
Quick reference: pIC50 of the listed items.

[
  {
    "STRUCTURE SMILES STRING": "CC1(C)C(C(=O)Nc2ccccn2)C1(C)C",
    "SYSTEM NAME": "M1 receptor (CHRM1) (Homo sapiens)",
    "pIC50": "< 4.30"
  }
]

Now for another entry.
Form: molecule = C[C@@H](C(=O)Nc1cnc(Oc2ccc(F)cc2F)cn1)N1CCC(F)(F)[C@@H](c2cc[n+]([O-])cc2)C1 ; pIC50 = < 4.30

---

# SYSTEM NAME: MRGPRX2 (Homo sapiens)
# PROTOCOL DESCRIPTION: Calcium mobilization (FLIPR TETRA) in BacMam-transduced U2OS cells
# Format: cell-based
# Set-up: expressed in transfected cells; host or cells: U2OS transduced with BacMam virus
VALUE TYPE: IC50 (nM)
Please give a number only; it is taken to be in nM.

Looking up CC1(C)C(C(=O)Nc2ccccn2)C1(C)C , I found its IC50 recorded as 44.6

---

# SYSTEM NAME: 5-HT1B receptor (HTR1B) (Homo sapiens, UniProt P28222)
# Sequence (P28222 whole entry): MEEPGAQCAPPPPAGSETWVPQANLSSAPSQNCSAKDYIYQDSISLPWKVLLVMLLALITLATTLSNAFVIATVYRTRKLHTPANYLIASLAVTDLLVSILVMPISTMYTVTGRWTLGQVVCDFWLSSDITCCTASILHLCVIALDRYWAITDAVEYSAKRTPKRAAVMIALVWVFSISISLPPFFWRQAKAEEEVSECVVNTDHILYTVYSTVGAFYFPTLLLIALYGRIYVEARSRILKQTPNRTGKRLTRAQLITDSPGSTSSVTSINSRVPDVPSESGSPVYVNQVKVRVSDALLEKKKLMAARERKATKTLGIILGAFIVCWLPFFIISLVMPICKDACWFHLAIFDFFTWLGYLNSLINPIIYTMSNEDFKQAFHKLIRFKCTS
# PROTOCOL DESCRIPTION: GPCR selectivity cellular assay
# CONDITIONS: Agonism; read-out: Agonist Activity (EC50)
VALUE TYPE: EC50 (µM)
Supply the numeric figure in µM, leaving out any unit text.

The recorded EC50 for CC1(C)C(C(=O)Nc2ccccn2)C1(C)C [Compound A] is 11.9

---

# SYSTEM NAME: k-Receptor (OPRK1) (Homo sapiens, UniProt P41145)
# Sequence (P41145 whole entry): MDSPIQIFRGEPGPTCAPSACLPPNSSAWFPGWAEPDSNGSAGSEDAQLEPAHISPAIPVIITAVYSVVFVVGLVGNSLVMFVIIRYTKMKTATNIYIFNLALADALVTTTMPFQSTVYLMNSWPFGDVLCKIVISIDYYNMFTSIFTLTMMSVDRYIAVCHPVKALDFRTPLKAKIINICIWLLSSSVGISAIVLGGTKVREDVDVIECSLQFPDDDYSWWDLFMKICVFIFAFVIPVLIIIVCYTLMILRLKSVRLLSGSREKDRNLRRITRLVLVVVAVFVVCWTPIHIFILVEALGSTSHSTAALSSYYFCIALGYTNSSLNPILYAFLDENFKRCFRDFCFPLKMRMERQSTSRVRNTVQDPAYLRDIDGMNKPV
# PROTOCOL DESCRIPTION: GPCR selectivity cellular assay
# Assay type: cell-based
pEC50: −log10 of the molar value.
VALUE TYPE: pEC50

Measured pEC50 for this entry CC1(C)C(C(=O)Nc2ccccn2)C1(C)C on k-Receptor (OPRK1) (Homo sapiens, UniProt P41145): < 4.00

---

# SYSTEM NAME: MRGPRX2 (Homo sapiens, UniProt Q96LB1)
# PROTOCOL DESCRIPTION: Ca2+ mobilization assay (FLIPR TETRA) in HEK293-MRGPRX2/Gα15 cells
# Type: cell-based
# Design: expressed in transfected cells
VALUE TYPE: pIC50
Field pIC50 (float): negative decimal logarithm of the concentration in molar.

The compound CC1(C)C(C(=O)Nc2ccccn2)C1(C)C showed pIC50 equal to 7.30
